molecular target: TNK1 (human)
metric.name: Kd (nM)
Answer with a number only, understood to be in nM.

Exam item: Annotate the compound COc1cc(C(=O)N2CCC(N3CCN(C)CC3)CC2)ccc1Nc1ncc2c(n1)N(C)c1ccccc1C(=O)N2C with its measured Kd.
Marked response: 23

----------
molecular target: DCLK2 (human) (UniProt Q8N568)
Sequence (Q8N568 whole entry, looked up): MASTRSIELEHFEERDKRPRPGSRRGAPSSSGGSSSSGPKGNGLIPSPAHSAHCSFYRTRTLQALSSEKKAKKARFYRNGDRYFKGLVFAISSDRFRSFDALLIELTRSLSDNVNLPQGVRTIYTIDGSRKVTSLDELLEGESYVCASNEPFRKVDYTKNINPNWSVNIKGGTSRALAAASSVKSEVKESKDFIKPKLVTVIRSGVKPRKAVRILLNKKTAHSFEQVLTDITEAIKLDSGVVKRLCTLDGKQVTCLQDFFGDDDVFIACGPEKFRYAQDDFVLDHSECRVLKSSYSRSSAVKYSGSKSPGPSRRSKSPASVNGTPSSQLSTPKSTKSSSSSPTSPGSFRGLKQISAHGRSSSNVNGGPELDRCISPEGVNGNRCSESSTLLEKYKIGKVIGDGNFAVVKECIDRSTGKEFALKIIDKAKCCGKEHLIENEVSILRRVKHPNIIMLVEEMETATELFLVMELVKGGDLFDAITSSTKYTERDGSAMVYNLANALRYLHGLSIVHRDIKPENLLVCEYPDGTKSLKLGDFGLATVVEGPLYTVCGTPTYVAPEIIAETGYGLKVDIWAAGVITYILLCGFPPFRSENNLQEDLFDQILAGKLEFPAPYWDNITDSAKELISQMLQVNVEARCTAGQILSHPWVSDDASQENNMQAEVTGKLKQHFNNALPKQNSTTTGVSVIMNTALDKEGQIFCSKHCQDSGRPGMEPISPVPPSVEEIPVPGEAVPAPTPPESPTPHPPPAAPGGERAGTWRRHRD
metric.name: pKd
Keep in mind that pKd stands for -log10 of concentration in molar terms.

Exam item: Give the reported pKd for this compound. COc1cc(C(=O)N2CCC(N3CCN(C)CC3)CC2)ccc1Nc1ncc2c(n1)N(C)c1ccccc1C(=O)N2C
Marked response: 7.80

----------
target: CHEK2 (human) (UniProt O96017); test: radiometric filter-binding kinase assay
Sequence (O96017 whole entry, looked up): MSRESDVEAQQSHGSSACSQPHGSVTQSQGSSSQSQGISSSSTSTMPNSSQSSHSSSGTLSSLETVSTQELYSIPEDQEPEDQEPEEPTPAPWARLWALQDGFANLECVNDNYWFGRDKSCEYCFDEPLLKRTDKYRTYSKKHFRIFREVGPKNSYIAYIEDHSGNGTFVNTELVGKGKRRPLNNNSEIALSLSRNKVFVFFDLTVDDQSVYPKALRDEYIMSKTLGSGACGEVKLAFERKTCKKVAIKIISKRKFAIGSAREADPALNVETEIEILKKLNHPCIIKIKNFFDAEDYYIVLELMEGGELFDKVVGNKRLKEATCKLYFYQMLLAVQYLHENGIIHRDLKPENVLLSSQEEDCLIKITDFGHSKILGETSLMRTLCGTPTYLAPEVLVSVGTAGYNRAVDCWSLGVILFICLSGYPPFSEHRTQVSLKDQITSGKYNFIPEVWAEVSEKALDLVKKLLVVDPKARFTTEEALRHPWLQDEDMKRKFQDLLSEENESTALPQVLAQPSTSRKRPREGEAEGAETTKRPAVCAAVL
metric.name: pIC50
Interpret pIC50 as the negative base-10 log of the concentration measured in mol/L.

Exam item: Hello, please tell me recorded pIC50 for this one: COc1cc(C(=O)N2CCC(N3CCN(C)CC3)CC2)ccc1Nc1ncc2c(n1)N(C)c1ccccc1C(=O)N2C
Marked response: 5.70

----------
molecular target: NUAK1 (human) (UniProt O60285); assay: radiometric filter-binding kinase assay
Sequence (O60285 whole entry, looked up): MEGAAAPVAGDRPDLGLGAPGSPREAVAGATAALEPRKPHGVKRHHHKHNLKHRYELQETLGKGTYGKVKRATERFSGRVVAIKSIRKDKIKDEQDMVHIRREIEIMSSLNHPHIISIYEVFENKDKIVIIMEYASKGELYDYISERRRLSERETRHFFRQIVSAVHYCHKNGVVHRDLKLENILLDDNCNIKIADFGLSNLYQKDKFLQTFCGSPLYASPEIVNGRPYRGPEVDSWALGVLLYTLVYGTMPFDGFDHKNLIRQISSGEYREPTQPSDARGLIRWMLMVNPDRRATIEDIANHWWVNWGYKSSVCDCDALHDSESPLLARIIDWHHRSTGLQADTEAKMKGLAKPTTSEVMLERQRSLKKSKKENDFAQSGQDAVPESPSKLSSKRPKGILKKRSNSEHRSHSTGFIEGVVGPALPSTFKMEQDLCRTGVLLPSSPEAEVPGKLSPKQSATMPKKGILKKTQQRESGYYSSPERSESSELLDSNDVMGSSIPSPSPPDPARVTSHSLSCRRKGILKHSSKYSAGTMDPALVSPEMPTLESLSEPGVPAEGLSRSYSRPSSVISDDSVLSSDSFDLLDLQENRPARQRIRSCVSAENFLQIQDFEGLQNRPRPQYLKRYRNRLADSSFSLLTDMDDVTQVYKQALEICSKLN
metric.name: IC50 (µM)
Express the result in µM but write the number alone.

Exam item: Provide IC50, system NUAK1 (human) (UniProt O60285), entry COc1cc(C(=O)N2CCC(N3CCN(C)CC3)CC2)ccc1Nc1ncc2c(n1)N(C)c1ccccc1C(=O)N2C
Marked response: 5

----------
molecular target: MYLK (human) (UniProt Q15746); assay: SelectScreen, TR FRET
metric.name: IC50 (µM)
Value expressed in µM; do not type the unit.

Exam item: Please indicate recorded IC50 of COc1cc(C(=O)N2CCC(N3CCN(C)CC3)CC2)ccc1Nc1ncc2c(n1)N(C)c1ccccc1C(=O)N2C measured with MYLK (human) (UniProt Q15746).
Marked response: 8.21

----------
target: NUAK1 (human); experiment: SelectScreen, TR FRET
metric.name: IC50 (µM)
The response must be a number in µM with no trailing unit.

Exam item: GET IC50 where system = NUAK1 (human) and item = COc1cc(C(=O)N2CCC(N3CCN(C)CC3)CC2)ccc1Nc1ncc2c(n1)N(C)c1ccccc1C(=O)N2C
Marked response: 3.67

----------
target: PLK1 (human); assay: KINOMEscan competition binding
metric.name: pKd
In simple prose, pKd is minus the logarithm base ten of a concentration in moles per litre.

Exam item: For COc1cc(C(=O)N2CCC(N3CCN(C)CC3)CC2)ccc1Nc1ncc2c(n1)N(C)c1ccccc1C(=O)N2C , write its pKd.
Marked response: 7.12

----------
target: MKNK2 (human); assay: radiometric filter-binding kinase assay
metric.name: pIC50
Entry type: numeric. Quantity: pIC50, the -log10 of concentration in molar units.

Exam item: For the compound COc1cc(C(=O)N2CCC(N3CCN(C)CC3)CC2)ccc1Nc1ncc2c(n1)N(C)c1ccccc1C(=O)N2C , give its reported pIC50.
Marked response: 5.14

----------
molecular target: LRRK2 (human) (UniProt Q5S007); experiment: SelectScreen, TR FRET
Sequence (Q5S007 whole entry, looked up): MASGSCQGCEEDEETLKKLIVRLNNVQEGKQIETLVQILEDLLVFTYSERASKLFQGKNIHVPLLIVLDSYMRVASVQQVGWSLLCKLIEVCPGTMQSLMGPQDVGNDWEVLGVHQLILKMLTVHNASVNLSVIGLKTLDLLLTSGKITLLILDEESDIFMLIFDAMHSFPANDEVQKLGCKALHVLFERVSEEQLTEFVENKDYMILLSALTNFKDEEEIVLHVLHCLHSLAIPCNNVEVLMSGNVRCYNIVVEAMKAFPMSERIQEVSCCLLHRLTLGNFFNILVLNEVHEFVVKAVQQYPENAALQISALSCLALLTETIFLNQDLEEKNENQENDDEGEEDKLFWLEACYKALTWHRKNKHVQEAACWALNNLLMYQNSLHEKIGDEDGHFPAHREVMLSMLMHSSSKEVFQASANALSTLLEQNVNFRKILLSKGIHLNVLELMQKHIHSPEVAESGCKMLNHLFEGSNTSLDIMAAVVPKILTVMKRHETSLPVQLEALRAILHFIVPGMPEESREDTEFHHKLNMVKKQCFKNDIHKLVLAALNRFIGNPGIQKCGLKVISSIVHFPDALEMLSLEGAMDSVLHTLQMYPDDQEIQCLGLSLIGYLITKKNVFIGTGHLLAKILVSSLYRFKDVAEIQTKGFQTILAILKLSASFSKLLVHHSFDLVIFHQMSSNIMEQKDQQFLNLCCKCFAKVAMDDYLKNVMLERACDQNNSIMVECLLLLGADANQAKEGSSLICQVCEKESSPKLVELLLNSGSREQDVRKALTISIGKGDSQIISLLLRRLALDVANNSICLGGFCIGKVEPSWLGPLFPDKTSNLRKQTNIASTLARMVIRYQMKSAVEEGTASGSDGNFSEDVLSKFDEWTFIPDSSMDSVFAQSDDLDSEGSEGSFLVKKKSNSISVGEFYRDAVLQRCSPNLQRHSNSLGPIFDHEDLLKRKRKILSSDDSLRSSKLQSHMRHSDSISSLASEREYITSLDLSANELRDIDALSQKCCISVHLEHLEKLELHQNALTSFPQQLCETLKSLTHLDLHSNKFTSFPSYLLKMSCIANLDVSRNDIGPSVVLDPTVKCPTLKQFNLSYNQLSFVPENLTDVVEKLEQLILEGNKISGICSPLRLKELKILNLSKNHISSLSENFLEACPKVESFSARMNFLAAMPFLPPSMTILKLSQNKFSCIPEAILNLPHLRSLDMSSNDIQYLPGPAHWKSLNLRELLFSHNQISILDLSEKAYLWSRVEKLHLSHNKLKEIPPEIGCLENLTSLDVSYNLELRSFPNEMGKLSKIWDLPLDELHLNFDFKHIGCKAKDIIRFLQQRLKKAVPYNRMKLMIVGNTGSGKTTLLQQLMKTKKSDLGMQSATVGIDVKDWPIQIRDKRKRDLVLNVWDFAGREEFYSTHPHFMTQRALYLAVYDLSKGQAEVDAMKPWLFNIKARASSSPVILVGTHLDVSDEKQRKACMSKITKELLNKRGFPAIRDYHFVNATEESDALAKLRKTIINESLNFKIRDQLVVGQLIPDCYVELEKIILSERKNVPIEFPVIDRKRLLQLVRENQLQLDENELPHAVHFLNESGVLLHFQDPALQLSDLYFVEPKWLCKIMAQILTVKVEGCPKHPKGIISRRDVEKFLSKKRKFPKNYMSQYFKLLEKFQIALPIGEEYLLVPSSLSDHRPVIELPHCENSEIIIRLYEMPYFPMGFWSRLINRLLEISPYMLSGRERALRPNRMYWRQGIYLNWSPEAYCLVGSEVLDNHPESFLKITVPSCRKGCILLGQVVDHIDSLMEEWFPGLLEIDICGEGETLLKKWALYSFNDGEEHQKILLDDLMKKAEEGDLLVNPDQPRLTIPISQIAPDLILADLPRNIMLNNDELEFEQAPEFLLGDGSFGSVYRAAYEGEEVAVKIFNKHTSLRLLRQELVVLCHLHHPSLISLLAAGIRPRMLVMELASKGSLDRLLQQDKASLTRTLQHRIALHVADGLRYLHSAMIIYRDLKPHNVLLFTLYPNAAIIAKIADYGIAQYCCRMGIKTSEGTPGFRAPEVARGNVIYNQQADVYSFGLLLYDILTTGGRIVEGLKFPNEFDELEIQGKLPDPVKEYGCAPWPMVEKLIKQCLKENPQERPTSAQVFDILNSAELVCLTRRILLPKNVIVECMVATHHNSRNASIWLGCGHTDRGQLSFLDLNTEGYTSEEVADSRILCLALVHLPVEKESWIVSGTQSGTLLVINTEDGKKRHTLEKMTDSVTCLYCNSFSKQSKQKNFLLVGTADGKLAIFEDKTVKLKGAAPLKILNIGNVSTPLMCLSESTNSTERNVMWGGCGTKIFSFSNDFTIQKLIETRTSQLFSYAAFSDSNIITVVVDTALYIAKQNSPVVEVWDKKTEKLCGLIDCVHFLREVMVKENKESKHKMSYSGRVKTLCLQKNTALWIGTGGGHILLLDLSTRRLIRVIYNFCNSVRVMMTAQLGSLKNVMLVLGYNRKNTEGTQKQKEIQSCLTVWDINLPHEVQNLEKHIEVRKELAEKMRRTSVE
metric.name: IC50 (nM)
Supply the numeric figure in nM, leaving out any unit text.

Exam item: Could you please provide reported IC50 for COc1cc(C(=O)N2CCC(N3CCN(C)CC3)CC2)ccc1Nc1ncc2c(n1)N(C)c1ccccc1C(=O)N2C ? Thanks!
Marked response: 3

----------
target: AURKA (human) (UniProt O14965); assay: radiometric filter-binding kinase assay
Sequence (O14965 whole entry, looked up): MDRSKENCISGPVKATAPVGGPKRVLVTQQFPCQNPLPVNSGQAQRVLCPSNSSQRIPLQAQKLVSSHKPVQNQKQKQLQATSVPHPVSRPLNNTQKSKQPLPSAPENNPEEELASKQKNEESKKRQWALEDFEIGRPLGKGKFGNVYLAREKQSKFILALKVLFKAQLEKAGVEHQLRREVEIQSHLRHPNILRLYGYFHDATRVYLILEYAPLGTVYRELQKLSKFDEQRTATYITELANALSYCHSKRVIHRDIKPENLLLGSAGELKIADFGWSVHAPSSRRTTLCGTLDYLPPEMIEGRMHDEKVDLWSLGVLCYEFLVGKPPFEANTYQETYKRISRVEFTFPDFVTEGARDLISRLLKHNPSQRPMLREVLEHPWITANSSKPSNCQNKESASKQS
metric.name: IC50 (nM)
Just the number please, in nM, no unit attached.

Exam item: Provide IC50, system AURKA (human) (UniProt O14965), entry COc1cc(C(=O)N2CCC(N3CCN(C)CC3)CC2)ccc1Nc1ncc2c(n1)N(C)c1ccccc1C(=O)N2C
Marked response: 1200
